Source listed as PubChem BioAssay (NCI).

Please go through the items and note down their growth.
Test system: NCI-H522 lung
assay_remarks: NCI-60 one-dose screen, 48 h (100 = growth as untreated, 0 = no growth, -100 = all killed)
stated_conditions: 10 µM unless noted
This is part of a sample that, as a whole, favours compounds with a hit. Of some 83,000 tested, about 20% had one in any assay. The source made the active and inactive calls. How the source made its calls: active means growth percent below 10; inactive means the rest.

See these solved cases before continuing.
| compound | growth |
| --- | --- |
| Cc1ccccc1-n1c(/C=C\c2ccccn2)nc2ccccc2c1=O | 54.8% (inactive) |
| COC1C(O)CC(OC2CC(Oc3cc4cc5c(c(O)c4c(O)c3C)C(=O)[C@@H](OC3CC(OC4CC(OC6CC(C)(O)C(OC(C)=O)C(C)O6)C(O)C(C)O4)C(O)C(C)O3)[C@H]([C@H](OC)C(=O)[C@@H](O)[C@@H](C)O)C5)OC(C)C2OC(C)=O)OC1C (some centres not stated) | -50.6% (active) |
| CC/C(Cc1ccccc1)=C(\c1ccc(OCCN2CCCC2)cc1)c1ccc(OC(=O)NCc2ccccc2)cc1 | 81.5% (inactive) |
| CCN1C(=O)NC(=O)C(C)(N2C(=O)c3c(F)c(F)c(F)c(F)c3C2=O)C1=O (configuration not stated) | -76.6% (active) |
| CCC(=O)C(CC(C)N1CCCCCC1)(c1ccccc1)c1ccccc1 (configuration not stated) | 83% (inactive) |

List reported growth for each of these compounds:
1. CCCCOC(N)=O
2. N#CC(C#N)=Cc1cccc(F)c1
3. CCC1(NC(=O)c2cc(F)c(F)c(F)c2F)C(=O)NC(=O)N(C(C)C)C1=O (configuration not stated)
4. OCCN=Cc1c[nH]c2ccccc12
5. C[Se]/C=C1/C(=O)N(c2c(Cl)cccc2Cl)c2ccccc21
6. Cc1cc(C(C)(C)C)ccc1O
7. C[C@]12CC[C@H]3[C@@H](CC=C4c5nc(-c6ccc(Br)cc6)sc5CC[C@@]43C)[C@@H]1CC[C@@H]2O

["106% (inactive)", "99.4% (inactive)", "-5.62% (active)", "95.2% (inactive)", "21.1% (inactive)", "102% (inactive)", "97.5% (inactive)"]

List reported growth for each of these compounds:
1. Cc1nnc([S-])o1.[Au+].c1ccc([PH+](c2ccccc2)c2ccccc2)cc1
2. C=CC[PH+](c1ccccc1)c1ccccc1.C=CC[PH+](c1ccccc1)c1ccccc1.[Pt+2].[S-]c1ncccn1.[S-]c1ncccn1

1: -81.1% (active); 2: -46.1% (active)

List reported growth for each of these compounds:
1. CCCCCCCCCCCCCCCCCC1OCC(COC(=O)O[C@@H](C(=O)O[C@H]2C[C@@]3(O)[C@@H](OC(=O)c4ccccc4)[C@@H]4[C@]5(OC(C)=O)CO[C@@H]5C[C@H](O)[C@@]4(C)C(=O)[C@H](OC(C)=O)C(=C2C)C3(C)C)[C@@H](NC(=O)c2ccccc2)c2ccccc2)O1 (some centres not stated)
2. CC[C@H](C)[C@H](NC(=O)[C@H]1CCCCN1C)C(=O)N(C)[C@H](C[C@@H](OC(C)=O)c1cccc(C(=O)N[C@@H](Cc2ccccc2)C[C@H](C)C(=O)OC)n1)C(C)C
3. O=[P+](O)c1cccnc1

1: 48.6% (inactive); 2: -11.6% (active); 3: 75.7% (inactive)
